Data credit: ChEMBL document CHEMBL3826954

Molecular target: Chromobox protein homolog 7 (Homo sapiens)
Sequence (O95931 whole entry, the tested form may be a part): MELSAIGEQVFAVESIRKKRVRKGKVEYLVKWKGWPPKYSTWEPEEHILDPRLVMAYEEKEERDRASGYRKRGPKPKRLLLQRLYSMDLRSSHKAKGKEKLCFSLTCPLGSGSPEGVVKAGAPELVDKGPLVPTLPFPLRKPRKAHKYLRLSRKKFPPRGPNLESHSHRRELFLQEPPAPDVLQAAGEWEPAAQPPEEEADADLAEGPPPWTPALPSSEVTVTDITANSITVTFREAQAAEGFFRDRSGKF
Test: Binding affinity to 15N-labeled CBX7ChD (7 to 66 residues) (unknown origin) expressed in RIPL-BL21 (DE3)-CodonPlus competent cells by HSQC/NMR titration
observation_type: Kd (µM)
Please reply with the bare figure in µM and do not write the unit itself.

Specify measured Kd for Cc1ccccc1Cn1c(=N)n(CC(O)c2ccc(Cl)c(Cl)c2)c2ccccc21 (stereo unspecified) .
500

====

Target: Chromobox protein homolog 7 (Homo sapiens)
Assay: Antagonist activity at CBX7ChD (7 to 66 residues) expressed in human PC3 cells assessed as transcriptional derepression of p16INK4a at 50 to 250 uM after 12 hrs by qPCR method
Assay type: cell-based
Details: PC-3
Calls of active or inactive are those of the source. The rule behind the calls is not given here.
observation_type: inhibition

Worked cases, inhibition given:
1. CCS(=O)(=O)Nc1ccc(OCC(=O)N2CCN(C(=O)c3cccc(OC)c3OC)CC2)cc1C
inactive
2. COc1cccc(C(=O)N2CCN(C(=O)COc3cccc(C)c3)CC2)c1OC
inactive
3. COc1cccc(C(=O)N2CCN(C(=O)COc3cc(C)c(NS(C)(=O)=O)c(C)c3)CC2)c1OC
inactive
4. COc1cccc(C(=O)N2CCN(C(=O)COc3cc(C)c(N)c(C(C)C)c3)CC2)c1OC
inactive
5. COc1cccc(C(=O)N2CCN(C(=O)COc3ccc(NC(C)=O)c(C)c3)CC2)c1OC
inactive

Give reported inhibition value for CCS(=O)(=O)Nc1c(C)cc(OCC(=O)N2CCN(C(=O)c3cccc(OC)c3OC)CC2)cc1C
inactive
